Every entry's value here was drawn from patent US20240165244A1.

DC50 listing for selected compounds.
Biological target: SMARCA4 (Homo sapiens)
Construct: SMARCA4-HiBiT knock-in Hela monoclonal cell (CS3023226); host or cells: HeLa monoclonal cells with heterozygous HiBiT knock-in at the endogenous SMARCA4 locus
Assay: SMARCA4 HiBiT degradation assay in HeLa cells
Format: cell-based
Conditions: 18 hours, highest concentration 10 μM

Solved cases (4 shown):
{"COMPOUND": "O=C1CCC(N2Cc3ccc(N4CCN(Cc5ccc(O[C@@H]6C[C@@H]7CNc8nnc(-c9cc(F)cc(F)c9O)cc8N7C6)cc5OC(F)(F)F)CC4)cc3C2=O)C(=O)N1 (some centres unmarked)", "DC50": "> 1000 nM"}
{"COMPOUND": "CC[C@@]12CNc3nnc(-c4cccc(F)c4O)cc3N1C[C@H](Oc1ncc(CN3CCC(c4ccc5c(c4)C(=O)N([C@H]4CCC(=O)NC4=O)C5)CC3)c(C)n1)C2", "DC50": "100 to 1000 nM"}
{"COMPOUND": "CC[C@@]12CNc3nnc(-c4cccc(F)c4O)cc3N1C[C@H](Oc1cnc(CN3CCN(c4ccc5c(c4)CN([C@H]4CCC(=O)NC4=O)C5)CC3)c(F)c1)C2", "DC50": "100 to 1000 nM"}
{"COMPOUND": "O=C1CCC(N2Cc3ccc(N4CCN(Cc5ccc(O[C@@H]6C[C@@H]7CNc8nnc(-c9cc(F)cc(F)c9O)cc8N7C6)c(Cl)c5)CC4)cc3C2=O)C(=O)N1 (some centres unmarked)", "DC50": "< 100 nM"}

Shifting focus to the compound that follows.
Recorded DC50 for O=C1CCC(N2Cc3ccc(N4CCN(Cc5cnc(O[C@H]6CN7c8cc(-c9cccc(F)c9O)nnc8NC[C@]7(C(F)F)C6)c(F)c5)CC4)cc3C2=O)C(=O)N1 (some centres unmarked) , please?
< 100 nM

----------
Listed molecules paired with reported Dmax
Molecular target: SMARCA4 (Homo sapiens, UniProt P51532)
Construct: SMARCA4-HiBiT knock-in Hela monoclonal cell (CS3023226); host or cells: HeLa monoclonal cells with heterozygous HiBiT knock-in at the endogenous SMARCA4 locus
Sequence (P51532 whole entry): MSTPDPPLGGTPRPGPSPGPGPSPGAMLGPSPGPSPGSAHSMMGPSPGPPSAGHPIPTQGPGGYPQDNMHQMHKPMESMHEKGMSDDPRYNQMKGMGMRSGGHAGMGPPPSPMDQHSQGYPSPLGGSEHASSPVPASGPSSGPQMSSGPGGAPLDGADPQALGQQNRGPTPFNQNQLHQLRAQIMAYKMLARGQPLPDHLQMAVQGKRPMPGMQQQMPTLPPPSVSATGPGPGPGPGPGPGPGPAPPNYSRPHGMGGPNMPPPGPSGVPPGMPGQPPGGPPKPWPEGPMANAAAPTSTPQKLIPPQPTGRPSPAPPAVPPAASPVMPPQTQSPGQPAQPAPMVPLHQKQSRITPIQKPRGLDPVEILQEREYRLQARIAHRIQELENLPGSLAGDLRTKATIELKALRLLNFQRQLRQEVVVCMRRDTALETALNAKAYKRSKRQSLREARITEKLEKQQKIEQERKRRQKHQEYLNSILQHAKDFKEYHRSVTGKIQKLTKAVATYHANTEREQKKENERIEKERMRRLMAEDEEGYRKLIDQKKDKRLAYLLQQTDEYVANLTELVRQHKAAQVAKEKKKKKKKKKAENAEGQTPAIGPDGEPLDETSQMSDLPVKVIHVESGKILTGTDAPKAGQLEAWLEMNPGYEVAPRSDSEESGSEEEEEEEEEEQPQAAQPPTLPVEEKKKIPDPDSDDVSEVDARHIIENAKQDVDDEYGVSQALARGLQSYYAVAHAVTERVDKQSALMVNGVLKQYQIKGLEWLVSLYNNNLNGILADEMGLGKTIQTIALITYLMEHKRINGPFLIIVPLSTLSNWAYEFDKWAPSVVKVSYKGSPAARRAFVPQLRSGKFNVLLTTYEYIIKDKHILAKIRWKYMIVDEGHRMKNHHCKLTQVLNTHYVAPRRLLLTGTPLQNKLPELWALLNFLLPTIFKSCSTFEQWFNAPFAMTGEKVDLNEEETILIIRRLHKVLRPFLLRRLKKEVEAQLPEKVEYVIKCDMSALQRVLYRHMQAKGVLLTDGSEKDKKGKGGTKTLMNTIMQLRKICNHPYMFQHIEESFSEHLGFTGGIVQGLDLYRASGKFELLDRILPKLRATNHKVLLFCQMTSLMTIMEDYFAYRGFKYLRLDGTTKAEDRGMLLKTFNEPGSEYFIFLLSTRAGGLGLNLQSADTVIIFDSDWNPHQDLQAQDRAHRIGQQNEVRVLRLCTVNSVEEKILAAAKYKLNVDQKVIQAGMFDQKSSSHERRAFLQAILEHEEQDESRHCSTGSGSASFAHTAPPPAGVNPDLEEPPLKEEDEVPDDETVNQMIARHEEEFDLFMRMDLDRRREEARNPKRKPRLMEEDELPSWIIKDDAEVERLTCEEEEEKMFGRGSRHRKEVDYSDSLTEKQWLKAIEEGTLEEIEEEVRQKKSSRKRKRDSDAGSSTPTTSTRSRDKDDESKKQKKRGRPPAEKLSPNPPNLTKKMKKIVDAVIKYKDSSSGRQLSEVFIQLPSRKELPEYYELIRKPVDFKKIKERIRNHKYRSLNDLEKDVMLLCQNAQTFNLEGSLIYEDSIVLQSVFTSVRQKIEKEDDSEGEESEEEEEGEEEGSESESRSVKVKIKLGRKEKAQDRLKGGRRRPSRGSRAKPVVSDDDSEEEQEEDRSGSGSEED
Experiment: SMARCA4 HiBiT degradation assay in HeLa cells
Type: cell-based
Conditions: 18 hours, highest concentration 10 μM

Examples with answers:
{"MOLECULE": "O=C1CCC(N2Cc3ccc(N4CCN(Cc5ccc(O[C@@H]6C[C@@H]7CNc8nnc(-c9cc(F)cc(F)c9O)cc8N7C6)c(F)c5)CC4)cc3C2=O)C(=O)N1 (some centres unmarked)", "STUDY SYSTEM": "SMARCA4 (Homo sapiens, UniProt P51532)", "RECORDED MEASUREMENT": "> 75%"}
{"MOLECULE": "COc1cc(O[C@@H]2C[C@@H]3CNc4nnc(-c5cccc(Cl)c5O)cc4N3C2)ccc1CN1CCN(c2ccc3c(c2)C(=O)N(C2CCC(=O)NC2=O)C3)CC1 (some centres unmarked)", "STUDY SYSTEM": "SMARCA4 (Homo sapiens, UniProt P51532)", "RECORDED MEASUREMENT": "> 75%"}
{"MOLECULE": "Cc1nc(O[C@H]2CN3c4cc(-c5cccc(F)c5O)nnc4NC[C@]3(CF)C2)c(F)cc1CN1CCN(c2ccc3c(c2)C(=O)N([C@H]2CCC(=O)NC2=O)C3)CC1", "STUDY SYSTEM": "SMARCA4 (Homo sapiens, UniProt P51532)", "RECORDED MEASUREMENT": "> 75%"}

Query: Dmax; subject: O=C1CCC(N2Cc3ccc(N4CCN(Cc5cnc(O[C@H]6CN7c8cc(-c9cccc(F)c9O)nnc8NC[C@]7(C(F)F)C6)cn5)CC4)cc3C2=O)C(=O)N1 (some centres unmarked)
< 50%

Find the recorded Dmax belonging to O=C1CCC(N2Cc3ccc(C4CCN(Cc5cnc(O[C@H]6CN7c8cc(-c9cccc(F)c9O)nnc8NC[C@@]7(C(F)F)C6)c(F)c5)CC4)cc3C2=O)C(=O)N1 (some centres unmarked) and report it.
< 50%
